System: PPARg:RXRa 270nM:90nM, anti-RXR (NR concentration 270 nM, RXRa partner concentration 90 nM)
assay_notes: PBM binding z-score (relative to random genomic background probes); higher = stronger binding; sequences stand for … in GC…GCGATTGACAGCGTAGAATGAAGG
quantity_measured: PBM binding z-score

Please go through the list and note PBM binding z-score for each sequence.
1. ATCTCTAGGTAAAGTTAAGTGAAAGATCGATAGA
2. ACAGACAGGTGATGAAGGTAACTCAGGCTATCAT
3. AGAACGAGGGCAATGAGTTGATAGCGCGGGTGGC
4. TCTCGGAGGGCACGAAAGGTCAGAGCTCGACATC
5. TCTAGTTGGTCAAGGGTCACACACTCGAAATGCG
6. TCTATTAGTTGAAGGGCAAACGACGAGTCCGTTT
7. TCTAGTTGGACACGGAGGTCACACACGACGGGTA
8. CAAACTAGGTCACAGATGTCAAAGTCCGTGCGTA

## Output
1.19
-0.0244
0.618
3.93
8.51
2.43
3.05
7.33

====

Test system: PPARg:RXRa 90nM:30nM, anti-RXR (NR concentration 90 nM, RXRa partner concentration 30 nM)
assay_notes: PBM binding z-score (relative to random genomic background probes); higher = stronger binding; sequences stand for … in GC…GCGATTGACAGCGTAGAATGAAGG
Kindly state PBM binding z-score for each of the entries shown.
One number for each entry.

| monomer_sequence | measured |
| --- | --- |
| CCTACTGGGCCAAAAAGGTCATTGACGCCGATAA | 3.54 |
| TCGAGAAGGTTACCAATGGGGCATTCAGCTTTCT | 1.69 |
| CCTGCTATGTCAATGGTCAGCTAAAGCAGCTCGC | 0.923 |

Please go through the list and note PBM binding z-score for each sequence.
1. CCGACTGGGGCATAAGGGTACCATAAGCCAGCCC
2. TGTCAAAGTTCAAATGTAACGTAAGTATCCACAC

## Output
1. 1.18
2. 6.93

====

Test system: THRa homodimer (NR concentration 90 nM)
assay_notes: PBM binding z-score (relative to random genomic background probes); higher = stronger binding; sequences stand for … in GC…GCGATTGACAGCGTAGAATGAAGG
Kindly state PBM binding z-score for each of the entries shown.
Give bare numbers.

Take a look at these entries with their results.
| monomer_sequence | test_target | PBM binding z-score |
| --- | --- | --- |
| GGAACGAGGGCAAAGTTGATAGTATCTGTCGACG | THRa homodimer (NR concentration 90 nM) | 0.0529 |
| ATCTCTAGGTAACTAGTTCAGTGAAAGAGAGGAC | THRa homodimer (NR concentration 90 nM) | 0.507 |

Please go through the list and note PBM binding z-score for each sequence.
1. AGTATGAGGTTATACGTAGATCAGGGAAGAAAGT
2. ATCTCTAGGTAACAAGTTCAGTGAAAGAGAGGAC
3. ACCGAAAGGTCGAGGTGAGTATAGAGAAAGGGAA
4. GATGCTAGGTCAGGTTGGTCAGCTAACGGGTACG
5. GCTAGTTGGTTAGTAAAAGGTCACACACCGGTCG
6. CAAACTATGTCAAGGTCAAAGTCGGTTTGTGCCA
7. TCGAGTAGGTTGGTCGGGGCATTCAGCCAACATA

## Output
[0.869, 0.986, 0.707, 0.898, 2.08, 3.78, 0.0385]

Please go through the list and note PBM binding z-score for each sequence.
1. GCATATAGGTAATACAAGTTGAAAGTCCGATTGT
2. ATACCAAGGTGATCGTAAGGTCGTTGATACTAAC
3. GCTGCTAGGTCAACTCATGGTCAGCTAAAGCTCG

## Output
-0.418
3.08
1.15
